fold selective binding to Y152A NKG2D over natural NKG2D values, listed per item
assay.system: T1, Y152A NKG2D-Fc (Example 5) (human)
T1 construct: also called non-natural Y152A NKG2D; not shown: Fc
T1 chain: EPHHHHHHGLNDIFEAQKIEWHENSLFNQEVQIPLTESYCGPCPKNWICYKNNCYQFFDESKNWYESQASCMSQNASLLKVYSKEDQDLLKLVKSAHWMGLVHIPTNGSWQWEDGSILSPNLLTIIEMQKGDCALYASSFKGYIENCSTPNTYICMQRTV
assay.comment: phage ELISA

Please review the following examples before continuing.
• ULBP2.S1 (phage clone) (ligand) AAEPHSLSYDITVIPKFRPGPRWCAVQGQVDEKTFLHYDCGNKTVTPVSPLGKKLNVTTAWKAQNPVLREVVDILTEQLWDIQLENYTPKEPLTLQARMSCEQKAEGHSSGSWQFSFDGQIFLLFDSEKRMWTTVHPGARKMKEKWENDKVVATTLYTWSMGDCIGWLEDFLMGMDSTLEPSAGAP = > 10 fold
• MICA25.17 (phage clone) (ligand) EPHSLRYNLTVLSWDGSVQSGFLTEVHLDGQPFLRCDRQKCRAKPQGQWAEDVLGNKTWDRETRDLTGWGTTLLMTLAHIKDQKEGLHSLQEIRVCEIHEDNSTRSSQHFYYDGELFLSQNLETLEWTMPQSSRAQTLAMNVRNFLKEDAMETDIGYRLMRADCLSELRRYLKSGVVLRRTV = > 10 fold

Problem: Return fold selective binding to Y152A NKG2D over natural NKG2D (reported value) for this binder: MICA25.18 (phage clone) (ligand) EPHSLRYNLTVLSWDGSVQSGFLTEVHLDGQPFLRCDRQKCRAKPQGQWAEDVLGNKTWDRETRDLTGWGTFLRMTLAHIKDQKEGLHSLQEIRVCEIHEDNSTRSSQHFYYDGELFLSQNLETLEWTMPQSSRAQTLAMNVRNFLKEDAMETDRSGLLMRADCLSELRRYLKSGVVLRRTV
Result: > 10 fold
